Listing of entries alongside the reported IC95, Activin SMAD RGA.
target: ActRIIA and ActRIIB (on TGFB/SMAD SBE Reporter HEK293 cells) (human); experiment: cell-based or functional assay
Sequence (chain, as listed by the source, chain 1 of 2): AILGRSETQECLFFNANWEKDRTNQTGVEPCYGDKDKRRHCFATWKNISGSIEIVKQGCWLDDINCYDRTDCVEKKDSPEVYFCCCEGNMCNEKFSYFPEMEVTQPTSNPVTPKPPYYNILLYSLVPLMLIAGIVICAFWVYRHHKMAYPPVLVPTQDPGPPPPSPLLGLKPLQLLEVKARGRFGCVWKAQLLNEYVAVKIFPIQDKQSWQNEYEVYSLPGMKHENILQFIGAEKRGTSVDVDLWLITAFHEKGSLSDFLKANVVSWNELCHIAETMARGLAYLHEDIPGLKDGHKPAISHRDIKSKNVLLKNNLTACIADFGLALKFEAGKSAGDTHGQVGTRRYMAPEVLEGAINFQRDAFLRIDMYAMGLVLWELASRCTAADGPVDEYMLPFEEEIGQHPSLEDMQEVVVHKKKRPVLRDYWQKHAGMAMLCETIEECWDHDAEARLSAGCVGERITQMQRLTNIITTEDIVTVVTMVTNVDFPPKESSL
Sequence (chain, as listed by the source, chain 2 of 2): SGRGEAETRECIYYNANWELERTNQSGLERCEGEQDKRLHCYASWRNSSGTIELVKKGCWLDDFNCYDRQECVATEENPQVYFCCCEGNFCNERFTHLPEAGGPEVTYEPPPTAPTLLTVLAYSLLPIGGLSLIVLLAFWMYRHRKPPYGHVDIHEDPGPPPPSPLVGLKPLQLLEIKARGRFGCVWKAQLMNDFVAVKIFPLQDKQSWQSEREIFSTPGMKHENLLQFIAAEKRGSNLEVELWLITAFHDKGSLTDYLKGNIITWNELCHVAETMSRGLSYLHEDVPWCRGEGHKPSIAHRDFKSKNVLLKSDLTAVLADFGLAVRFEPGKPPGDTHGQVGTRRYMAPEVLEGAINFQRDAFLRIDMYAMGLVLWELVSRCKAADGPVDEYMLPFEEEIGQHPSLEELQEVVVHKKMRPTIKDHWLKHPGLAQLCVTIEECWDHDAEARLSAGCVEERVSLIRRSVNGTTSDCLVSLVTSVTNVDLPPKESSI
endpoint-label: IC95, Activin SMAD RGA (nM)

binder="Antibody Schwardamaga (antibody, V domains shown, full-length IgG) VH: QVQLVQSGAEVKKPGSSVKVSCKASGYTFTSSYINWVRQAPGQGLEWMGTINAVSGSTSYAQKFQGRVTITADTSTSTAYMELSSLRSEDTAVYYCARGGWFDYWGQGTLVTVSS VL: QSALTQPRSVSGSPGQSVTISCTGTSSDVGSANYVNWYQQHPGKAPKPMIYGVSRRPSGVPDRFSGSKSGNTASLTISGLQAEDEADYYCGTFAGGKYYGVFGGGTKLTVL" endpoint_label="IC95, Activin SMAD RGA" unit_symbol=nM reported=12.8
binder="Antibody Ofaschlupfer (antibody, V domains shown, full-length IgG) VH: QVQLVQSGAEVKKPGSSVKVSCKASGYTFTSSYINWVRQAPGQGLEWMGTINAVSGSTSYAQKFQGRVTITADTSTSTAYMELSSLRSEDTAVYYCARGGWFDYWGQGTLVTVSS VL: QSALTQPRSVSGSPGQSVTISCTGTSSDVGSKNYVNWYQQHPGKAPKLMIYGVSKRESGVPDRFSGSKSGNTASLTISGLQAEDEADYYCGTFAGGKYYGVFGGGTKLTVL" endpoint_label="IC95, Activin SMAD RGA" unit_symbol=nM reported=7.07
binder="Antibody Soidawürstle (antibody, V domains shown, full-length IgG; also called Soidawüsrstel) VH: QVQLVQSGAEVRKPGSSVKVSCKASGYTFTSSYINWVRQAPGQGLEWMGTINPVSGSTSYAQKFQGRVTITADTSTSTAYMELSSLRSEDTAVYYCARGGWFDYWGQGTLVTVSS VL: QSALTQPRSVSGSPGQSVTISCTGTSSDVGSYNRVNWYQQHPGKAPKLMIYGVSKRESGVPDRFSGSKSGNTASLTISGLQAEDEADYYCGTFAGGRYYGVFGGGTKLTVL" endpoint_label="IC95, Activin SMAD RGA" unit_symbol=nM reported=4.84
binder="Bimagrumab (antibody, V domains shown) VH: QVQLVQSGAEVKKPGASVKVSCKASGYTFTSSYINWVRQAPGQGLEWMGTINPVSGSTSYAQKFQGRVTMTRDTSISTAYMELSRLRSDDTAVYYCARGGWFDYWGQGTLVTVSS VL: QSALTQPASVSGSPGQSITISCTGTSSDVGSYNYVNWYQQHPGKAPKLMIYGVSKRPSGVSNRFSGSKSGNTASLTISGLQAEDEADYYCGTFAGGSYYGVFGGGTKLTVL" endpoint_label="IC95, Activin SMAD RGA" unit_symbol=nM reported=19.6
